assayInfo: Pharmacokinetic assay in mice
Format: in vivo, Balb/c mice
runParameters: mouse, IV 2mpk
Procedure: Eighteen male Balb/c mice aged 6 to 8 weeks were randomly divided into 2 groups (IV group and PO group). […] Pharmacokinetic parameters of the drug were calculated based on the drug concentration-time data, including the peak concentration Cmax, peak time Tmax, clearance rate CL, steady state apparent volume of distribution Vss, area under drug-time curve AUC, elimination half-life t1/2, bioavailability, and the like. […]
measuredParameter: CLz (mL/min/kg)

[[record]]
itemsmiles = "CN(Cc1ccc2c(c1)OC(F)(F)O2)C(=O)c1ccc2nc(N)c3cnn(C)c3c2c1"
measuredparameter = "CLz"
observedvalue = 18.3

[[record]]
itemsmiles = "Cn1ncc2c(N)nc3cc(F)c(C(=O)N4CCOC[C@@H]4c4ccc5c(c4)OC(F)(F)O5)cc3c21"
measuredparameter = "CLz"
observedvalue = 13

[[record]]
itemsmiles = "Cn1ncc2c(N)nc3cc(F)c(C(=O)N(Cc4ccc5c(c4)OC(F)(F)O5)C4CC4)cc3c21"
measuredparameter = "CLz"
observedvalue = 12


a = CN(Cc1ccc2c(c1)OC(F)(F)O2)C(=O)c1cc2c(cc1F)nc(N)c1cnn(C)c12
b = CCN(Cc1ccc2c(c1)OC(F)(F)O2)C(=O)c1ccc2nc(N)c3cnn(C)c3c2c1
Input line: // task: argmin of CLz over [ a , b ] Refer to your chosen item by its label in the answer.
Output line: a

* * *

assayInfo: Pharmacokinetic assay in rats
Type: in vivo, SD rats
runParameters: plasma, 10 mg/kg; rat, PO 10mpk
measuredParameter: AUC(0-inf) (µM·h)
Report only the number, with the unit µM·h understood.

So for Cn1ncc2c(N)nc3cc(F)c(C(=O)N4CCOC[C@@H]4c4ccc5c(c4)OC(F)(F)O5)cc3c21 , the logged AUC(0-inf) turned out to be 9.6

* * *

assayInfo: Pharmacokinetic assay in rats
Format: in vivo, SD rats
runParameters: plasma, 0.2 mg/kg; rat, IV 0.2mpk; read-out: MRT(0-∞)
measuredParameter: MRT inf (h)
Please respond with the number in h and leave the unit unwritten.

molecule Cn1ncc2c(N)nc3cc(F)c(C(=O)N4CCOC[C@@H]4c4ccc5c(c4)OC(F)(F)O5)cc3c21 , MRT inf observed: 1.8

* * *

assayInfo: Pharmacokinetic assay in mice
Assay type: in vivo, Balb/c mice
runParameters: male, Balb/c, plasma, 100 mg/kg; mouse, PO 100mpk
measuredParameter: AUC(0-t) (µM·h)
Answer in µM·h, number only, no unit symbol.

The recorded AUC(0-t) for Cn1ncc2c(N)nc3cnc(C(=O)N4CCOC[C@@H]4c4ccc(C(F)(F)F)cc4)cc3c21 [Control compound A, reference compound] is 455

* * *

Test system: SDMA
assayInfo: SDMA Inhibition Assay in HCT-116 cells
Type: cell-based
runParameters: Homo sapiens, HCT-116, 96 hours
pEC50: −log10 of the molar value.
measuredParameter: pEC50

Previously resolved entries follow.
[[record]]
compound = "CN(Cc1ccc2cnn(C)c2c1)C(=O)c1cc2c(cc1F)nc(N)c1cnn(C)c12 [Example I-19]"
observedvalue = 6.08

[[record]]
compound = "CN1CCN(CCN(Cc2ccc3c(c2)OC(F)(F)O3)C(=O)c2cc3c(cc2F)nc(N)c2cnn(C)c23)CC1 [Example I-31]"
observedvalue = 5.95

[[record]]
compound = "Cn1ncc2c(N)nc3ccc(C(=O)N4CCOCC4c4ccc5c(c4)OC(F)(F)O5)cc3c21 (stereo not drawn) [Example I-4]"
observedvalue = 6.42

[[record]]
compound = "Cn1ncc2c(N)nc3cc(F)c(C(=O)N4CCCC[C@@H]4c4ccc5c(c4)OC(F)(F)O5)cc3c21 [Example I-80]"
observedvalue = 7.19


P = CC(C)N(Cc1ccc2c(c1)OC(F)(F)O2)C(=O)c1ccc2nc(N)c3cnn(C)c3c2c1 [Example I-14]
Q = Cn1ncc2c(N)nc3ccc(C(=O)N4CCOCC4c4ccc5c(c4)OC(F)(F)O5)cc3c21 (single isomer, unassigned) [I-4 (PEAK1)]
Input line: Between the entries labeled P and Q , whose measured pEC50 is lower? // return label of chosen record
Output line: Q

1 = CN(Cc1ccc2nn(C)cc2c1)C(=O)c1cc2c(cc1F)nc(N)c1cnn(C)c12 [Example I-20]
2 = CCN(Cc1ccc2c(c1)OC(F)(F)O2)C(=O)c1ccc2nc(N)c3cnn(C)c3c2c1 [Example I-5]
Input line: Which one would you say has the larger pEC50 value: 1 , or 2 ? # answer = label of selected item
Output line: 2

a = Cn1ncc2c(N)nc3cc(C#N)c(C(=O)N(Cc4ccc5c(c4)OC(F)(F)O5)C4CC4)cc3c21 [Example I-54]
b = CN(Cc1ccc2c(c1)OC(F)(F)O2)C(=O)c1ccc2nc(N)c3cnn(C)c3c2c1 [Example I-2]
c = Cn1ncc2c(N)nc3cc(F)c(C(=O)N(Cc4ccc5c(c4)OC(F)(F)O5)C[C@@H]4COCCO4)cc3c21 [Example I-27]
Input line: Arrange the 3 compounds by rising pEC50, starting with the smallest. Answer format: the labels, in the requested order.
Output line: b, c, a
(b: 6.00, c: 6.92, a: 7.21)

All figures here come from patent EP4700025A1.
